# assayedSystem: Cellular tumor antigen p53 (Homo sapiens) (UniProt P04637)
# Sequence (P04637 whole entry, looked up): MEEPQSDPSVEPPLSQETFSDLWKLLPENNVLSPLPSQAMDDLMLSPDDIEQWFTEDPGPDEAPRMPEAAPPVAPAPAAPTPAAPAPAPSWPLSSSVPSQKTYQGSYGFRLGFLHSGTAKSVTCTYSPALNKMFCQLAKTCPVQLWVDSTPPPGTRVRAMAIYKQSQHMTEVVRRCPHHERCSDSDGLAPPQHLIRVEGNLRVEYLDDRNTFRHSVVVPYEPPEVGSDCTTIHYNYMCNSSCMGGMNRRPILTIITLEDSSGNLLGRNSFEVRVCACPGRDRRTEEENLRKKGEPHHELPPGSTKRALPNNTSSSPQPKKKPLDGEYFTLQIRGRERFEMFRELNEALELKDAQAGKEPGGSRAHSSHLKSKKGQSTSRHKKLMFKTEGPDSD
# testSummary: TOX21_p53_BLA_p2_ratio: Tox21 HCT-116 p53 Agonism Beta-lactamase Assay, Ratio, Phase 2 (AID 2283592)
Inconclusive results are not listed. Calls of active or inactive are those of the source. Rule for the calls: active = hit-call score of the fitted dose curve at least 0.9, where 1 is the maximum; inconclusive = response in the unintended direction; inactive = score below 0.9.
The reply should be one of these categories: class 1 for active, class 0 for inactive

compound	assayedSystem	category
CC[C@]1(O)CC[C@H]2[C@@H]3CCC4=CCCC[C@@H]4[C@H]3CC[C@@]21C	Cellular tumor antigen p53 (Homo sapiens) (UniProt P04637)	class 1

Consider now this further compound.
Q) What was the test verdict on `CN1C[C@H](CNC(=O)OCc2ccccc2)C[C@@H]2c3cccc4c3c(cn4C)C[C@H]21` ?
A) class 0

The measurements presented in this section are drawn from PubChem BioAssay (EPA / NIEHS).
